These measurements were taken from PubChem BioAssay (NCI).

system: IGROV1 ovarian; assay: NCI-60 one-dose screen, 48 h (100 = growth as untreated, 0 = no growth, -100 = all killed); conditions: 10 µM unless noted
About 83,000 compounds went through this panel and 20% of them were active in at least one assay; those are over-represented in the sample as a whole.
experimental-readout: growth (%)
Report the figure in % without appending any unit label.

* O=C(N/N=C\c1cc(Br)ccc1O)c1ccncc1 | 25.2
* CC(C)[C@@]12C[C@@H](OC(=O)C3CO3)[C@@](C)(O1)[C@@H]1CC[C@@H](C)[C@H]1[C@@H]2OC(=O)/C=C/c1ccccc1 (stereo partly drawn) | 74.6
* O=C(Nc1ccc(Br)cc1)Nc1cccc(Br)c1 | 25.5
* COC(=O)c1ccc2c(c1)nc(-c1cc3ccccc3[nH]c1=O)n2-c1cc(C(C)(C)C)[nH]n1 | 44.7
* C=C1C(=O)O[C@H]2[C@H]1CC/C(COC(=O)NCc1ccc(Cn3c(=O)sn(CCCl)c3=O)cc1)=C\CC[C@@]1(C)O[C@@H]21 | 47.7
* N=C(N)c1ccc(-c2ccc(-c3ccco3)o2)cc1F | 11.9
* CCC1N=C(N)N=C(N)N1c1ccc(Cl)cc1 (stereo not drawn) | 66.6
* Clc1ccc(-c2cnc3nonc3n2)s1 | 71.3
* COc1ccc(-c2cc(C(=O)Nc3ccc(C)cc3)nc3[nH]c(=O)sc23)cc1 | 70.3
* O/N=C/c1ccncc1 | 114

Request: Please give the measured growth for this compound: COc1ccc2c(c1)C1=NN(C(=O)CO)[C@H](c3ccc(OC(F)(F)F)cc3)[C@@H]1CC2
Response: 72.3

Request: Please give the measured growth for this compound: COc1ccc(-c2cnnn2-c2nonc2-n2cccc2)cc1
Response: 28.9

Request: Please give the measured growth for this compound: CCS(=O)(=O)Nc1cccc(Nc2c3cccc(C)c3nc3c(C)cccc23)c1OC
Response: 36.2
